testedSystem: SIK1 (Homo sapiens, UniProt P57059)
Sequence (P57059 whole entry): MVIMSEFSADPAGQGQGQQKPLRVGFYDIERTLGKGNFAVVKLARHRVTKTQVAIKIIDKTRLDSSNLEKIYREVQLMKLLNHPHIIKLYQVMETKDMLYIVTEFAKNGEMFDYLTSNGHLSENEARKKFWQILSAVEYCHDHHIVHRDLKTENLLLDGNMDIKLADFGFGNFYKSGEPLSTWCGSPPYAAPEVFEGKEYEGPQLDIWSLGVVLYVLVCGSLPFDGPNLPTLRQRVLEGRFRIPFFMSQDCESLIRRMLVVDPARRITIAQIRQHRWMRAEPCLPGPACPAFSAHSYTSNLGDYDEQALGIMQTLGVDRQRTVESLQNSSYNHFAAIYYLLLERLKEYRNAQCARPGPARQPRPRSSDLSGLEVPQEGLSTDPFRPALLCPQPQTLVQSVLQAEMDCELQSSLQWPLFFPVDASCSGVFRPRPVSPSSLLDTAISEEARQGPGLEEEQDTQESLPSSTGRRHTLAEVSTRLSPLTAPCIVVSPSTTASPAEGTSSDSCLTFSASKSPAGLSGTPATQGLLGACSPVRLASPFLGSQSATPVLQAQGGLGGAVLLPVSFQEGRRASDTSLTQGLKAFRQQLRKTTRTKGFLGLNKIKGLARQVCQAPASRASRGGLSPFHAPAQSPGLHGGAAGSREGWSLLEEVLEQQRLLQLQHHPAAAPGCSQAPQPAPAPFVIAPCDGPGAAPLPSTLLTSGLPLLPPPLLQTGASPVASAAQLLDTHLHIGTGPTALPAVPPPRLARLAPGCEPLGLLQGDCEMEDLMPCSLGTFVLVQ
Quick rule for you: Ki under 1 nM gets yes, anything else gets no.

For orientation, consider the following solved cases.
Qu. Hi there! Is Ki for "CNc1cc2c(NC3CCNCC3)cc(-c3c(C)cccc3F)cc2cn1" below 1 nM, do you know?
Ans. yes

Qu. Take the compound "Cc1cccc(F)c1-c1cc(NCC2CCNCC2)c2cc(N)ncc2c1" and say whether its Ki is less than 1 nM.
Ans. yes

Qu. Please let me know if "Cc1cccc(F)c1-c1cc(NC2CNC2)c2ccncc2c1" shows Ki below 1 nM.
Ans. no

Next:
Qu. Item "CN[C@H]1CCCN(c2cc(-c3c(C)cccc3F)cc3cnc(N)cc23)C1" : Ki beneath 1 nM, strictly?
Ans. yes

Qu. Item "CNC[C@@H]1CCCN(c2cc(-c3c(C)cccc3F)cc3cnc(N)cc23)C1" : Ki beneath 1 nM, strictly?
Ans. no

Qu. Input "CNC[C@H]1CCCN(c2cc(-c3c(C)cccc3F)cc3cnc(N)cc23)C1" ; condition: Ki strictly below 1 nM. Does it hold?
Ans. yes

Qu. Dear reviewer, please state whether "Cc1cccc(F)c1-c1cc(N2CCC(N(C)C)CC2)c2cc(N)ncc2c1" has Ki strictly beneath 1 nM.
Ans. no

Reference for the values: patent US12637428B2
